# EXPERIMENT: A CellTox Green Cytotoxicity Assay to monitor cytotoxicity in HepG2 cells - 40 hour (AID 1224879); note: nearly all actives have a fitted effect of over 40% in size; note: potency is the fitted concentration of half-maximal effect
# CONDITION DESCRIPTION: CellTox Green fluorescence; series mostly up to 76.8 µM
Inconclusive results are not listed. The source made the active and inactive calls. Calls come from the whole dose curve; as a rule, active = well fitted activation curve with a large enough effect in the repeat runs; inconclusive = weak or mixed curves; inactive = flat fitted curve, though single readings scatter.
MEASURE: Potency

O=[N+]([O-])c1cc([N+](=O)[O-])c2ccc(S(=O)(=O)O)cc2c1O	inactive
CCCCCCCCCCCCCCCC[N+](C)(C)CCN(Cc1ccc(OC)cc1)c1ncccn1	6.01 µM (active)
Cc1cc(O)c2ccccc2c1O	13.4 µM (active)
C/C(=C(/OCCOc1ccc(Cl)cc1)c1ccc(Cl)cc1Cl)n1ccnc1	inactive
CCCCCCCC/C=C\CCCCCCCCOCCO	63.7 µM (active)
CCCCCCCC[N+](CCCCCCCC)(CCCCCCCC)CCCCCCCC	24.5 µM (active)
C[n+]1cc2c3c(ccc2c2ccc4cc5c(cc4c21)OCO5)OCO3	0.657 µM (active)
Oc1cc2ccccc2c2ccccc12	11 µM (active)
CCOC(=O)/C=C(C)/C=C/C=C(C)/C=C/c1c(C)cc(OC)c(C)c1C	inactive
Cc1[nH]cnc1C[C@H]1CCc2c(C)c3ccccc3n2C1=O	33.8 µM (active)
CCCCCCCCCCCCCCCS(=O)(=O)Oc1ccccc1	inactive
CCCCCOC(=O)CCCC	inactive
Cc1cccc(S(=O)(=O)O)c1C	inactive
CCCCCCCCCCCCCCCCCC[N+](C)(C)C	49.1 µM (active)
CCCCCCCCCCCCCCCC(=O)OC[C@H](O)[C@H]1OC(=O)C(O)=C1O	inactive
CCN(CCC#N)c1ccc(N=Nc2c(Cl)cc([N+](=O)[O-])cc2Cl)cc1	inactive
CN(C/C=C/C#CC(C)(C)C)Cc1cccc2ccccc12	inactive
CCCCCCCCOc1ccccc1C(=O)Nc1ccc(C(=O)OCC[N+](C)(CC)CC)cc1	23.9 µM (active)
O=C1c2c(O)ccc(Nc3ccc(CCO)cc3)c2C(=O)c2c([N+](=O)[O-])ccc(O)c21	inactive
O=C(Nc1ccc(Oc2ccc(Cl)cc2)c(Cl)c1)c1cc(I)cc(I)c1O	inactive
C[n+]1ccn(Cc2ccccc2)c1	inactive
CCCCCCCCn1sc(Cl)c(Cl)c1=O	9.77 µM (active)
N=C1C=CC(=C(c2ccc(N)cc2)c2ccc(N)cc2)C=C1	inactive
O=c1[nH]sc2ccccc12	21.9 µM (active)
C=CC(=O)OCCn1c(=O)n(CCOC(=O)C=C)c(=O)n(CCOC(=O)C=C)c1=O	21.9 µM (active)
Oc1cccc2cc3cccc(O)c3c(O)c12	inactive
Nc1ccc(N)c2ccccc12	54.9 µM (active)
CCC(C)(C)C1CCCCC1OC(C)=O (centres undefined)	inactive
O=c1c(-c2ccccc2)c1-c1ccccc1	10.7 µM (active)
Cc1cccc2c1cc1ccc3cccc4ccc2c1c34	inactive
CCN(C(=O)c1cc(C)cc(OC[C@H](C)Nc2ccncc2)c1)C(C)C	inactive
CC(C)c1ccc2c(c1)CC[C@H]1[C@](C)(CN)CCC[C@]21C	11 µM (active)
O=C(O)c1c(Cl)cccc1Cl	inactive
O=C(c1ccc(O)cc1O)c1ccc(O)cc1O	inactive
CC[C@@]1(O)C(=O)OCc2c1cc1n(c2=O)Cc2c-1nc1ccccc1c2/C=N/OC(C)(C)C	1.07 µM (active)
O=C(O)c1ccc(Cl)c(Cl)c1	inactive
COc1c(C)c2c(c(O)c1C/C=C(\C)CCC(=O)O)C(=O)OC2	inactive
Cc1cc(=O)oc2cc(N(C)C)ccc12	inactive
O=C1C=CC(=O)N1c1ccc(Cc2ccc(N3C(=O)C=CC3=O)cc2)cc1	7.76 µM (active)
CCCCCCCC(=O)[O-].CCCCCCCC(=O)[O-].[Zn+2]	inactive
CC(C)n1nc(-c2cc3cc(O)ccc3[nH]2)c2c(N)ncnc21	23.9 µM (active)
O=C1C=CC(=O)N1	17.8 µM (active)
CCc1oc2ccccc2c1C(=O)c1cc(Br)c(O)c(Br)c1	inactive
N=C1N=C(N)c2ccccc21	43.6 µM (active)
CCN(C(=O)N(CC)c1ccccc1)c1ccccc1	inactive
CC(=O)SC[C@@H](Cc1ccccc1)C(=O)NCC(=O)OCc1ccccc1	inactive
C=C(C)C(=O)OCC(O)COc1ccc(C(C)(C)c2ccc(OCC(O)COC(=O)C(=C)C)cc2)cc1 (centres undefined)	43.6 µM (active)
CCN(CC)CCCC(C)Nc1c2ccc(Cl)cc2nc2ccc(OC)cc12 (centres undefined)	6.01 µM (active)
CCCCN(CCCC)C(=O)N(CCCC)CCCC	inactive

---

# EXPERIMENT: qHTS assay for identifying genotoxic compounds that show differential cytotoxicity against isogenic chicken DT40 cell lines with known DNA damage response pathways - wild type cell line (AID 743012); note: nearly all actives have a fitted effect of over 60% in size
# CONDITION DESCRIPTION: DT40 wild type chicken cells viability, CellTiter-Glo, 40 h; series mostly up to 68.4 µM
Results filed as inconclusive are left out. The source made the active and inactive calls. The call rests on the fitted dose curve; in most records, active means well fitted cell-killing curve with a large enough effect in the repeat runs; inconclusive means weak or mixed curves, or effect the other way; inactive means no such curve, though single readings can be large or run the other way.
Outcomes: active, inactive

CC1=C(/C=C/C(C)=C/C=C/C(C)=C/C=O)C(C)(C)CCC1	active
CCN(CC)CCNC(=O)c1c(C)[nH]c(/C=C2\C(=O)Nc3ccc(F)cc32)c1C	active
COc1cccc2c1C(=O)c1c(O)c3c(c(O)c1C2=O)C[C@@](O)(C(=O)CO)C[C@@H]3O[C@H]1C[C@H](N)[C@H](O[C@@H]2CCCCO2)[C@H](C)O1	active
CC(C)(C)CC(C)(C)c1ccc(O)c(Cc2ccc(Cl)cc2Cl)c1	active
Nc1ccc2c3c(cccc13)-c1ccccc1-2	active
C[C@H]1[C@H]2CC[C@H]3[C@@H]4CC=C5C[C@@H](N(C)C)CC[C@]5(C)[C@H]4CC[C@]23CN1C	active
CN(C)[C@@H]1C(=O)C(C(N)=O)=C(O)[C@@]2(O)C(=O)C3=C(O)c4c(O)ccc(Cl)c4[C@@H](O)[C@H]3C[C@@H]12	inactive
Cc1ccc(-n2nc(C(C)(C)C)cc2NC(=O)Nc2ccc(OCCN3CCOCC3)c3ccccc23)cc1	active
CN(C)C(=O)C1(N2CCCCC2)CCN(CC[C@@]2(c3ccc(Cl)c(Cl)c3)CN(C(=O)c3ccccc3)CCO2)CC1	active
CNC(=O)c1ccccc1	inactive
Cc1cc(O)c2ccccc2c1O	active
N=C1N=C(N)c2cc3ccccc3cc21	active
Cc1cc(C2CCCCC2)n(O)c(=O)c1	active
OCc1c[nH]c2ccccc12	active
O=CC=C(c1ccccc1)c1ccccc1	active
CSc1cnc(C)cn1	inactive
CC(NN)c1ccccc1 (centres undefined)	inactive
Fc1ccc(C(c2ccc(F)cc2)N2CCN(C/C=C/c3ccccc3)CC2)cc1	active
CC(C)c1ccc2c(c1)CC[C@H]1[C@](C)(CN)CCC[C@]21C	active
Nc1ccc(N)c2ccccc12	active
C=CC(=O)OCC(CO)(COCC(COC(=O)C=C)(COC(=O)C=C)COC(=O)C=C)COC(=O)C=C	active
O=C(NO)C1(NS(=O)(=O)c2ccc(Oc3ccc(F)cc3)cc2)CCOCC1	active
O=C(Oc1cccc2cccnc12)c1ccccc1	active
O=C(OC[C@H]1O[C@@H](OC(=O)c2cc(O)c(O)c(OC(=O)c3cc(O)c(O)c(O)c3)c2)[C@H](OC(=O)c2cc(O)c(O)c(OC(=O)c3cc(O)c(O)c(O)c3)c2)[C@@H](OC(=O)c2cc(O)c(O)c(OC(=O)c3cc(O)c(O)c(O)c3)c2)[C@@H]1OC(=O)c1cc(O)c(O)c(OC(=O)c2cc(O)c(O)c(O)c2)c1)c1cc(O)c(O)c(OC(=O)c2cc(O)c(O)c(O)c2)c1	active
Cc1ccc2oc(CN(Cc3ccccc3)C(=O)Nc3c(F)cc(F)cc3F)c(-c3ccc(Cl)cc3)c2c1	active
CC/C(=C(\c1ccc(O)cc1)c1ccc(OCCN(C)C)cc1)c1ccccc1	active
O=C(OCC1CO1)C1CCCCC1C(=O)OCC1CO1 (centres undefined)	active
CCC1=C[C@@H]2CN(C1)Cc1c([nH]c3ccccc13)[C@@](C(=O)OC)(c1cc3c(cc1OC)N(C)[C@H]1[C@@](O)(C(=O)OC)[C@H](OC(C)=O)[C@]4(CC)C=CCN5CC[C@]31[C@@H]54)C2	active
CC(C)CCCCCCCCCCCCCCC(=O)O	inactive
Cc1cc(O)c(C(C)(C)C)cc1Sc1cc(C(C)(C)C)c(O)cc1C	active
CCN(Cc1cccnc1)C(=O)c1cccc(Cl)c1[C@]1(C)C(=O)N(Cc2ccc(OC)cc2OC)c2ccc(Cl)cc21	active
CCc1cc(SCc2sc(-c3ccc(C(F)(F)F)cc3)nc2CN2CCN(c3ccc(OC)cc3)CC2)ccc1OCC(=O)O	active
CCCCCCCCCCCCCC[P+](CCCC)(CCCC)CCCC (tested in a mixture with another compound)	active
CNCc1cc(F)ccc1Oc1ccc(Cl)c(Cl)c1	active
[Cl][Au]([Cl])[Cl]	active
CCN1/C(=C/C=C/c2sc3ccccc3[n+]2CC)Sc2ccccc21	active
Cc1nc(-c2ccc3c(c2)CCN(CCC2CCC(NC(=O)/C=C/c4ccc(F)cc4)CC2)CC3)no1 (centres undefined)	active
N=C1C=CC(=C(c2ccc(N)cc2)c2ccc(N)cc2)C=C1	active
CCCCCCCCOc1ccccc1C(=O)Nc1ccc(C(=O)OCC[N+](C)(CC)CC)cc1	active
